Give GI50 for every item shown.
# Test system: KM-20L2
# assay-comment: NCI tumour cell line growth inhibition, 48 h
The source made the active and inactive calls. No stated cut-off is given here; in the data, active = GI50 up to about 1.1 µM and inactive = higher.

Check out these entries, answers already filled in.
1. O=C1CCCC2COc3ccc(O)c1c32 (stereo not given)    > 100 µM (inactive)
2. C1=Cc2nc1c(-c1ccccc1)c1ccc([n-]1)c(-c1ccccc1)c1nc(c(-c3ccccc3)c3ccc([n-]3)c2-c2ccccc2)C=C1.[Zn+2]    > 100 µM (inactive)
3. C=C1C2CC(OC(C)=O)C3(C)C(c4ccoc4)OC(=O)[C@@H](O)[C@]13OC1C[C@H](OC(C)=O)C(C)(C)[C@H](C(O)C(=O)OC)[C@]12C (stereo not given in full)    > 100 µM (inactive)
4. O=NN(CCCl)C(=O)N[C@H]1CC[C@H](CC(=O)O)CC1    > 46.5 µM (inactive)

Alright, here's another compound for you.
Exercise: Consider the compound `Oc1ccccc1/C=C/c1csnn1` and give its measured GI50.
Key: > 100 µM (inactive)

* * *

# Tested on: IGROV-1
# assay-comment: NCI tumour cell line growth inhibition, 48 h
Active and inactive are the calls of the source. Cut-off read from the data, not from the text of the source: active = GI50 up to about 1.1 µM and inactive = higher.
Can you answer with just one of these options? 1 (yes) = active, 0 (no) = inactive

Solved cases (5 shown):
1) NS(=O)(=O)c1ccc(C(=O)O)cc1 [CARZENIDE]    0 (no)
2) O=CN1CCN(C(=O)c2ccc(Cl)c(Cl)c2)C1=S    0 (no)
3) COC(C/C(=C/CO[Si](C(C)C)(C(C)C)C(C)C)C(=O)Nc1ccccc1I)OC    0 (no)
4) Nc1nc2c(c(-c3ccccc3Cl)n1)COC/C2=C\c1ccccc1Cl    0 (no)
5) COc1ccccc1/C=C/C(=O)c1sc(-c2cccnc2)nc1C    0 (no)

Exercise: Which outcome was entered for the molecule `CCSC1=N/C(=C\c2ccco2)C(NN)=N1` in this test?
Key: 0 (no)

Exercise: Repeat with O=C(N/S(=N/S(=O)(=O)c1ccc(Br)cc1)C(Cl)(Cl)Cl)c1ccccc1 (stereo unspecified)
Key: 0 (no)

Exercise: Repeat with `CCN(CCCl)c1cc(CN(C)C)cc(NC(=O)c2ccc(C(=O)Nc3cc(CN(C)C)cc(N(CC)CCCl)c3)cc2)c1`
Key: 1 (yes)

* * *

# System: CCRF-CEM
# assay-comment: NCI tumour cell line growth inhibition, 48 h
The source made the active and inactive calls. Rule as the data show it: active = GI50 up to about 1.1 µM and inactive = higher.
Can you answer with just one of these options? active, inactive

Solved cases (3 shown):
1) Nc1nc2c(c(-c3ccccc3Cl)n1)COC/C2=C\c1ccccc1Cl    inactive
2) COC(=O)c1nc2n(n1)-c1ccccc1C(=O)N(Cc1ccccc1)C2    inactive
3) COc1cc(CNc2nc3ccccc3nc2-c2cccs2)cc(OC)c1OC    inactive

Exercise: Which outcome was entered for the molecule C/C=C/C=C\C1OC(O)([C@H](CC)C(=O)NC/C=C/C=C(\C)[C@H](OC)C(C)C2OC(\C=C/C=C/C=C(\C)C(=O)c3c(O)ccn(C)c3=O)[C@H](O)[C@@H]2O)C(O)C(O)C1(C)C (stereo not given in full) in this test?
Key: inactive

Exercise: Repeat with `COc1ccc(/N=N/c2c(-c3ccccc3)nn(C(=O)CC(=O)Nc3ccc(OC)cc3)c2-c2ccccc2)cc1`
Key: inactive

* * *

# System: MCF7
# assay-comment: NCI tumour cell line growth inhibition, 48 h
Active and inactive are the calls of the source. No stated cut-off is given here; in the data, active = GI50 up to about 1.1 µM and inactive = higher.
measure-name: GI50

Check out these entries, answers already filled in.
1) COc1ccc2c(c1)CCC1=C/C(=N\NC(N)=O)CCC12C (stereo not given)    > 10 µM (inactive)
2) COc1ccc(/N=N/C(=N\c2ccc(F)cc2)c2ccc(N(CCC#N)CCC#N)cc2)cc1    28.4 µM (inactive)
3) CCN(C(=O)N[C@H](C(=O)N[C@@H](C)C(=O)OC)C(C)C)c1ccccc1    31 µM (inactive)
4) CCC(CCCN)Nc1cc(OC)cc2cccnc12 (stereo not given)    29.4 µM (inactive)

Alright, here's another compound for you.
Exercise: Consider the compound `C[C@H]1CC(=O)[C@@]2(O)C#C/C=C\C#C[C@@H]3Nc4c(cc(O)c5c4C(=O)c4ccccc4C5=O)[C@]24O[C@]314` and give its measured GI50.
Key: < 0.001 µM (active)
